Target: Structural capsid protein (Human immunodeficiency virus 1) (UniProt Q76129)
Sequence (Q76129 as listed by the source): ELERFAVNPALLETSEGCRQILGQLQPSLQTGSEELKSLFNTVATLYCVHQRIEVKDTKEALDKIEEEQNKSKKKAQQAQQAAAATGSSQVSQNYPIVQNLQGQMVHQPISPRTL
Test: Binding affinity to HIV1 capsid protein assessed as viral capsid assembly rate at 1 mM by ultraviolet spectrophotometry (RVb= 60.56 +/- 3.77 milliOD/min)
// class assignment uses Activity (milli optical density/minute) with these ranges: lower bin: < 10; middle bin: ≥ 10 and < 20; upper bin: ≥ 20

For orientation, consider the following solved cases.
COc1ccc(C(=O)N[C@@H](Cc2c[nH]cn2)C(=O)N/N=C/c2ccc([N+](=O)[O-])cc2)cc1 ... middle bin
CC[C@@H](C)[C@H](NC(=O)c1ccc(OC)cc1)C(=O)N/N=C/c1ccco1 ... lower bin
COc1ccc(C(=O)N[C@H](C(=O)N/N=C/c2ccc(C)cc2)[C@H](C)O)cc1 ... middle bin
COc1ccc(C(=O)N[C@@H](Cc2ccc(O)cc2)C(=O)N/N=C/c2ccc(O)cc2)cc1 ... lower bin
CC[C@@H](C)[C@H](NC(=O)c1ccc(OC)cc1)C(=O)N/N=C/c1ccc(C)cc1 ... upper bin
COc1ccc(C(=O)N[C@@H](Cc2ccc(O)cc2)C(=O)N/N=C/c2ccco2)cc1 ... middle bin
COc1ccc(C(=O)N[C@@H](Cc2c[nH]cn2)C(=O)N/N=C/c2ccco2)cc1 ... upper bin
COc1ccc(C(=O)N[C@@H](Cc2c[nH]cn2)C(=O)N/N=C/c2ccc(O)cc2)cc1 ... upper bin

Could you tell me which band COc1ccc(C(=O)N[C@@H](Cc2c[nH]cn2)C(=O)N/N=C/c2ccc(C)cc2)cc1 belongs to?
lower bin

Field entry: CC[C@@H](C)[C@H](NC(=O)c1ccc(OC)cc1)C(=O)N/N=C/c1ccc(O)cc1
upper bin

// same read-out, input: COc1ccc(C(=O)N[C@@H](Cc2c[nH]cn2)C(=O)N/N=C/c2ccc(Cl)cc2)cc1
lower bin

Next compound up: COc1ccc(C(=O)N[C@H](C(=O)N/N=C/c2ccc(Cl)cc2)[C@@H](C)O)cc1
upper bin

* * *

A collection of molecules and their measured selectivity ratio
Test: Therapeutic index, TC50 for human CEM174 cells to EC50 for SIV-induced syncytium in human CEM174 cells
Format: cell-based
Settings: read-out: TI
I'd appreciate a reply containing only the number, no unit.

Which selectivity ratio value is on record for COc1ccc(C(=O)N[C@@H](Cc2ccc(O)cc2)C(=O)N/N=C/c2ccc(Cl)cc2)cc1 ?
2.69

Let us now turn to COc1ccc(C(=O)N[C@@H](Cc2ccc(O)cc2)C(=O)N/N=C/c2ccco2)cc1
3.38

* * *

Experiment: Therapeutic index, TC50 for human CEM174 cells to EC50 for SIV-induced syncytium in human CEM174 cells
Type: cell-based
Conditions: read-out: TI
quantity kind: selectivity ratio

Tell me the measured selectivity ratio of CC[C@@H](C)[C@H](NC(=O)c1ccc(OC)cc1)C(=O)N/N=C/c1ccc(C)cc1 , please.
> 7.2

Could you do the same for COc1ccc(C(=O)N[C@@H](Cc2c[nH]cn2)C(=O)N/N=C/c2ccc(C)cc2)cc1 , please?
> 64.5

Another compound: COc1ccc(C(=O)N[C@H](C(=O)N/N=C/c2ccc(O)cc2)[C@@H](C)O)cc1
> 12.3
